Listed compounds paired with reported fold change of Histamine concentration
# Tested on: Klebsiella aerogenes DSM 30053
# protocol text: fold change of Histamine concentration vs plate DMSO controls (fold change (ratio)); higher = more amine produced, active = hit call of the paper (significant change in both replicates, either direction)
# condition notes: incubation time: 27 h, anaerobic, 37 °C
Counter-ions that a name gives are not always drawn.

Worked cases, answers included:
1. Cn1nnnc1SCC1=C(C(=O)O)N2C(=O)[C@@H](NC(=O)[C@H](O)c3ccccc3)[C@H]2SC1 [Cefamandole sodium salt] (20 µM)	1.04 (inactive)
2. Cc1cc(=O)n(-c2ccccc2)n1C [Antipyrine] (20 µM)	0.98 (inactive)

Please give the measured fold change of Histamine concentration for this compound: COc1cc(N)c(Cl)cc1C(=O)NC1CCN(Cc2ccccc2)CC1 [Clebopride maleate] (20 µM)
1 (inactive)

Please give the measured fold change of Histamine concentration for this compound: O=C(NCCO[N+](=O)[O-])c1cccnc1 [Nicorandil] (20 µM)
1.06 (inactive)

Please give the measured fold change of Histamine concentration for this compound: CCCN(CCC)C(=O)C(CCC(=O)O)NC(=O)c1ccccc1 (stereo not drawn) [Proglumide] (20 µM)
0.906 (inactive)

Please give the measured fold change of Histamine concentration for this compound: CCCCOC(=O)c1ccc(N)cc1 [Butamben] (20 µM)
1 (inactive)

Please give the measured fold change of Histamine concentration for this compound: O=C(O)CCNC(=O)c1ccc(/N=N/c2ccc(O)c(C(=O)O)c2)cc1 [Balsalazide disodium salt] (20 µM)
0.892 (inactive)

Please give the measured fold change of Histamine concentration for this compound: CN(C)CCn1nnnc1SCC1=C(C(=O)O)N2C(=O)[C@@H](NC(=O)Cc3csc(N)n3)[C@H]2SC1 [Cefotiam hydrochloride] (20 µM)
1.27 (inactive)
